Assay: Distribution of C1 in tissues
Type: in vivo, Wistar rats
Conditions: male, Wistar, rat, muscle, po, 75 mg/kg, Muscle, 90 min, p.o. 75 mg/kg, n = 3; read-out: Average Concentration
OUTCOME_MEASURE: concentration at 90 min (ng/mL)
The answer is to be given in ng/mL; state only the numeric part.

Specify concentration at 90 min for "O=C(/C=C(/Br)C(=O)O)Nc1ccc(O)c(C(=O)O)c1" and stop.
3300

###

Assay: Pharmacokinetic profiles after p.o., i.p. and i.v. administration
Format: in vivo, Wistar rats
Conditions: Wistar, rat, plasma, po, 50 mg/kg, plasma, i.g. (p.o.) 50 mg/kg, 600 min, n = 6; read-out: Average Concentration
OUTCOME_MEASURE: concentration at 600 min
Please answer using the number first and the unit second.

Specify concentration at 600 min for O=C(/C=C(/Br)C(=O)O)Nc1ccc(O)c(C(=O)O)c1 [Compound C1] and stop.
0 ng/mL

###

Test: Distribution of C1 in tissues
Format: in vivo, Wistar rats
Details: male, Wistar, rat, heart, po, 75 mg/kg, Hearth, 30 min, p.o. 75 mg/kg, n = 3; read-out: Average Concentration
OUTCOME_MEASURE: concentration at 30 min
Please answer using the number first and the unit second.

Specify concentration at 30 min for O=C(/C=C(/Br)C(=O)O)Nc1ccc(O)c(C(=O)O)c1 [Compound C1] and stop.
3600 ng/mL

###

Test: Pharmacokinetic profiles after p.o., i.p. and i.v. administration
Type: in vivo, Wistar rats
Conditions: Wistar, rat, plasma, ip, 75 mg/kg, plasma, i.p. 75 mg/kg, 360 min, n = 6; read-out: Average Concentration
OUTCOME_MEASURE: concentration at 360 min (ng/mL)
The answer is to be given in ng/mL; state only the numeric part.

Specify concentration at 360 min for "O=C(/C=C(/Br)C(=O)O)Nc1ccc(O)c(C(=O)O)c1" and stop.
0

###

Assay: Distribution of C1 in tissues
Type: in vivo, Wistar rats
Conditions: male, Wistar, rat, brain, po, 75 mg/kg, Brain, p.o. 75 mg/kg, individual rats; read-out: Concentration (µg/mL) at 6 h, Rat 1-3
OUTCOME_MEASURE: concentration at 6 h

Specify concentration at 6 h for O=C(/C=C(/Br)C(=O)O)Nc1ccc(O)c(C(=O)O)c1 [Compound C1] and stop.
2.2 µg/mL

###

Experiment: Distribution of C1 in tissues
Type: in vivo, Wistar rats
Details: male, Wistar, rat, colon, po, 75 mg/kg, Colon, 10 min, p.o. 75 mg/kg, n = 3; read-out: Average Concentration
OUTCOME_MEASURE: concentration at 10 min (ng/mL)
The answer is to be given in ng/mL; state only the numeric part.

Specify concentration at 10 min for "O=C(/C=C(/Br)C(=O)O)Nc1ccc(O)c(C(=O)O)c1" and stop.
10300

###

Test: Distribution of C1 in tissues
Format: in vivo, Wistar rats
Details: male, Wistar, rat, heart, po, 75 mg/kg, Hearth, 10 min, p.o. 75 mg/kg, n = 3; read-out: Average Concentration
OUTCOME_MEASURE: concentration at 10 min (ng/mL)
The answer is to be given in ng/mL; state only the numeric part.

Specify concentration at 10 min for O=C(/C=C(/Br)C(=O)O)Nc1ccc(O)c(C(=O)O)c1 [Compound C1] and stop.
7200

###

Test: Distribution of C1 in tissues
Assay type: in vivo, Wistar rats
Conditions: male, Wistar, rat, kidney, po, 75 mg/kg, Kidney, 10 min, p.o. 75 mg/kg, n = 3; read-out: Average Concentration
OUTCOME_MEASURE: concentration at 10 min (ng/mL)
The answer is to be given in ng/mL; state only the numeric part.

Specify concentration at 10 min for "O=C(/C=C(/Br)C(=O)O)Nc1ccc(O)c(C(=O)O)c1" and stop.
16000

###

Test: Distribution of C1 in tissues
Assay type: in vivo, Wistar rats
Settings: male, Wistar, rat, spleen, po, 75 mg/kg, Spleen, 10 min, p.o. 75 mg/kg, n = 3; read-out: Average Concentration
OUTCOME_MEASURE: concentration at 10 min (µg/mL)
The answer is to be given in µg/mL; state only the numeric part.

Specify concentration at 10 min for "O=C(/C=C(/Br)C(=O)O)Nc1ccc(O)c(C(=O)O)c1" and stop.
31.8

###

Assay: Plasma protein binding assay (ultrafiltration, RP-HPLC)
Format: in vitro ADME, Wistar rats
Conditions: Wistar; rat plasma, 5 µg/mL; read-out: Percentage of Unbound Fraction ± SD (%)
OUTCOME_MEASURE: fraction unbound at 4 h, 5 µg/mL
Give the figure only, with no unit attached.

Specify fraction unbound at 4 h, 5 µg/mL for O=C(/C=C(/Br)C(=O)O)Nc1ccc(O)c(C(=O)O)c1 [Compound C1] and stop.
0.942

###

Assay: Pharmacokinetic profiles after p.o., i.p. and i.v. administration
Assay type: in vivo, Wistar rats
Settings: Wistar, rat, plasma, po, 50 mg/kg, i.g. (p.o.) 50 mg/kg, 240 min, n = 6
OUTCOME_MEASURE: concentration at 240 min

Specify concentration at 240 min for "O=C(/C=C(/Br)C(=O)O)Nc1ccc(O)c(C(=O)O)c1" and stop.
665 ng/mL

###

Experiment: Distribution of C1 in tissues
Format: in vivo, Wistar rats
Settings: male, Wistar, rat, colon, po, 75 mg/kg, Colon, 6 h, p.o. 75 mg/kg, n = 3; read-out: Average Concentration
OUTCOME_MEASURE: concentration at 6 h (ng/mL)
The answer is to be given in ng/mL; state only the numeric part.

Specify concentration at 6 h for "O=C(/C=C(/Br)C(=O)O)Nc1ccc(O)c(C(=O)O)c1" and stop.
6000

###

Test: Pharmacokinetic profiles after p.o., i.p. and i.v. administration
Assay type: in vivo, Wistar rats
Conditions: Wistar, rat, plasma, ip, 75 mg/kg, i.p. 75 mg/kg, rats; read-out: t1/2a, absorption half-life (converted)
OUTCOME_MEASURE: absorption half-life
Please answer using the number first and the unit second.

Specify absorption half-life for "O=C(/C=C(/Br)C(=O)O)Nc1ccc(O)c(C(=O)O)c1" and stop.
1.3 h

###

Experiment: Pharmacokinetic profiles after p.o., i.p. and i.v. administration
Format: in vivo, Wistar rats
Conditions: Wistar, rat, plasma, iv, 50 mg/kg, plasma, i.v. 50 mg/kg, 720 min, n = 6; read-out: Average Concentration
Protocol: On the same day as C1 administration, the rats (three groups, n = 6) were previously cannulated for compound administration by the p.o., i.p., and i.v. routes. A 24 G catheter was placed in the right lateral tail vein for blood collection. A first group of rats received a single dose of 50 mg/kg applied p.o. with a 20 G gavage needle. A dose of 75 mg/kg of C1 was injected i.p. into the rats in the second group. […]
OUTCOME_MEASURE: concentration at 720 min (ng/mL)
The answer is to be given in ng/mL; state only the numeric part.

Specify concentration at 720 min for "O=C(/C=C(/Br)C(=O)O)Nc1ccc(O)c(C(=O)O)c1" and stop.
0

###

Assay: Distribution of C1 in tissues
Assay type: in vivo, Wistar rats
Conditions: male, Wistar, rat, stomach, po, 75 mg/kg, Stomach, 90 min, p.o. 75 mg/kg, n = 3; read-out: Average Concentration
OUTCOME_MEASURE: concentration at 90 min (ng/mL)
The answer is to be given in ng/mL; state only the numeric part.

Specify concentration at 90 min for O=C(/C=C(/Br)C(=O)O)Nc1ccc(O)c(C(=O)O)c1 [Compound C1] and stop.
7900

###

Experiment: Pharmacokinetic profiles after p.o., i.p. and i.v. administration
Assay type: in vivo, Wistar rats
Conditions: Wistar, rat, plasma, po; p.o. 50 mg/kg, rats; read-out: tmax, time to maximum plasma concentration (converted)
OUTCOME_MEASURE: Tmax (min)
The answer is to be given in min; state only the numeric part.

Specify Tmax for "O=C(/C=C(/Br)C(=O)O)Nc1ccc(O)c(C(=O)O)c1" and stop.
33

###

Assay: Pharmacokinetic profiles after p.o., i.p. and i.v. administration
Type: in vivo, Wistar rats
Conditions: Wistar, rat, plasma, ip, 75 mg/kg, i.p. 75 mg/kg, 30 min, n = 6
OUTCOME_MEASURE: concentration at 30 min (ng/mL)
The answer is to be given in ng/mL; state only the numeric part.

Specify concentration at 30 min for "O=C(/C=C(/Br)C(=O)O)Nc1ccc(O)c(C(=O)O)c1" and stop.
19900

###

Test: Distribution of C1 in tissues
Assay type: in vivo, Wistar rats
Settings: male, Wistar, rat, liver, po, 75 mg/kg, Liver, 90 min, p.o. 75 mg/kg, n = 3; read-out: Average Concentration
OUTCOME_MEASURE: concentration at 90 min (ng/mL)
The answer is to be given in ng/mL; state only the numeric part.

Specify concentration at 90 min for "O=C(/C=C(/Br)C(=O)O)Nc1ccc(O)c(C(=O)O)c1" and stop.
4400
